study target: 5-HT4 receptor (Homo sapiens)
Sequence (Q13639 whole entry): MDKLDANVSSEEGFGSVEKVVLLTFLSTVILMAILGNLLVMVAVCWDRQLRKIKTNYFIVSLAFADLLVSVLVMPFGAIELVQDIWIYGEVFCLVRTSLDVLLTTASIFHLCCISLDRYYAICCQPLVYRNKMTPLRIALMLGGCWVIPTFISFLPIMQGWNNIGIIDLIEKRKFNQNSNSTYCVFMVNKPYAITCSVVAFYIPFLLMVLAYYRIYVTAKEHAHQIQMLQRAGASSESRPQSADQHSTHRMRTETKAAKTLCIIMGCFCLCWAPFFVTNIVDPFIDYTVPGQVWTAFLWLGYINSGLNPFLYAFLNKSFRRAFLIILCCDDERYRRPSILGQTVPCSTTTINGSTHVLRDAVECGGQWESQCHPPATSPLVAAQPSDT
outcome measure: Ki (nM)
Please reply with the bare figure in nM and do not write the unit itself.

Task: Which value of Ki has been reported for Cn1cc(C(=O)OCC2CCN(CCNS(C)(=O)=O)CC2)c2ccccc21 [GR113808] in the records?
Output: 0.45

---

Tested on: P. falciparum 3D7 trophozoites
assay remarks: Metabolomic fingerprint profiling LC-MS
Type: cell-based, Plasmodium falciparum
condition parameters: S2 Table Metabolomics; peptide DLS/SDL/SID
Threshold check on DLS/SDL/SID: strictly below -0.1 is 1.0; on or above -0.1 is 0.0.

CCC1(C)CC(CCNCc2ccccc2O)(c2ccc(C)cc2)CCO1 (centres unmarked)
1.0
COc1ccccc1N=C1C(=O)c2ccccc2C(O)=C1N1CCCCC1
0.0
Cc1cc(C)c2c(c1)OCN(Cc1ccccc1Cl)C2
1.0
COc1ccc(NC(=O)C2c3ccccc3C(=O)N(CC(C)C)C2c2cccs2)cc1Cl (centres unmarked)
1.0

Consider now this further compound.
Task: Record C[n+]1c2ccccc2nc2ccc(NCCO)cc21 : is its DLS/SDL/SID strictly below -0.1?
Output: 0.0
